tested-on: human recombinant kinase full-length Akt2 (Homo sapiens, UniProt P31751)
Construct: human recombinant kinase full-length Akt2; His
Sequence (P31751 whole entry): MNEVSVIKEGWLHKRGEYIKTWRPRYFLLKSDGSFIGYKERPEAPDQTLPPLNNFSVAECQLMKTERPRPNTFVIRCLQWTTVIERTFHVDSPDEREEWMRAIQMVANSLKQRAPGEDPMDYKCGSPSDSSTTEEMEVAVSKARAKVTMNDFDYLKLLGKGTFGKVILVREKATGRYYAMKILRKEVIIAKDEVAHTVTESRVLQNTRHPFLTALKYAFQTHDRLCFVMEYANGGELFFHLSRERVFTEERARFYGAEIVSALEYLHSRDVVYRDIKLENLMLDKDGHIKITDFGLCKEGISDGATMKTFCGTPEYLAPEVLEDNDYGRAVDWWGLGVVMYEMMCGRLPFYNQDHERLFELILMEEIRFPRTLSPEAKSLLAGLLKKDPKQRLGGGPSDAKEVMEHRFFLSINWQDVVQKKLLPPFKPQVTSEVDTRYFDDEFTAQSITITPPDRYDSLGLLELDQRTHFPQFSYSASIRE
assay-details: Akt2 kinase assay (TR-FRET)
assay-setup: Akt2 activated by PDK1, 10 μM ATP, 1 μM peptide substrate, 60 min at 22° C.; read-out: IC50 Akt2 (Biological Assay 2.0)
property-label: IC50 (nM)

// worked examples, IC50 included
- compound-structure: "Fc1ccc(-c2nc(C3CCN(Cc4ccc(-c5ncn6ccnc6c5-c5ccccc5)cc4)CC3)n[nH]2)nc1"
  unit-of-measure: "nM"
  IC50: 98
- compound-structure: "Cc1nc(-c2ccc(CN3CCC(c4n[nH]c(-c5ncccn5)n4)CC3)cc2)c(-c2ccccc2)c2nccn12"
  unit-of-measure: "nM"
  IC50: 414

[a] Cc1nc(-c2ccc(CN3CCC(c4n[nH]c(-c5cnccn5)n4)CC3)cc2)c(-c2ccccc2)c2nccn12
[b] c1ccc(-c2c(-c3ccc(CN4CCC(c5n[nH]c(-c6ccccn6)n5)CC4)cc3)ncn3ccnc23)cc1
Query :: Which of these two has the smaller recorded IC50: a or b ? Reply briefly: the label of your chosen item.
Result :: b

[a] Cc1ccc(-c2nc(C3CCN(Cc4ccc(-c5ncn6ccnc6c5-c5ccccc5)cc4)CC3)n[nH]2)nc1
[b] Clc1cccc(-c2nc(C3CCN(Cc4ccc(-c5ncn6ccnc6c5-c5ccccc5)cc4)CC3)n[nH]2)n1
[c] Cc1nc(-c2ccc(CN3CC(c4n[nH]c(-c5ccccn5)n4)C3)cc2)c(-c2ccccc2)c2nccn12
[d] FC(F)(F)c1ccnc(-c2nc(C3CCN(Cc4ccc(-c5ncn6ccnc6c5-c5ccccc5)cc4)CC3)n[nH]2)c1
Query :: Hey, can you sort those compounds up there by IC50, smallest first? Provide the ranking by listing each label in its place in the requested order.
Result :: a, c, b, d
(a: 50 nM, c: 81 nM, b: 132 nM, d: 222 nM)

[1] Cc1ccc(-c2nc(C3CCN(Cc4ccc(-c5ncn6ccnc6c5-c5ccccc5)cc4)CC3)n[nH]2)nc1C
[2] Cc1cc(C)nc(-c2nc(C3CCN(Cc4ccc(-c5ncn6ccnc6c5-c5ccccc5)cc4)CC3)n[nH]2)c1
Query :: Which of these two has the smaller recorded IC50: 1 or 2 ? Reply briefly: the label of your chosen item.
Result :: 2

[I] c1ccc(-c2c(-c3ccc(CN4CC(c5n[nH]c(-c6ccccn6)n5)C4)cc3)ncn3ccnc23)cc1
[II] Brc1ccc(-c2nc(C3CCN(Cc4ccc(-c5ncn6ccnc6c5-c5ccccc5)cc4)CC3)n[nH]2)nc1
[III] c1ccc(-c2c(-c3ccc(CN4CCC(c5n[nH]c(-c6cnccn6)n5)CC4)cc3)ncn3ccnc23)cc1
[IV] Cc1ccc(-c2nc(C3CCN(Cc4ccc(-c5nc(C)n6ccnc6c5-c5ccccc5)cc4)CC3)n[nH]2)nc1C
Query :: Hey, can you sort those compounds up there by IC50, smallest first? Provide the ranking by listing each label in its place in the requested order.
Result :: IV, I, II, III

---

tested-on: human recombinant kinase full-length Akt1 (Homo sapiens)
Construct: human recombinant kinase full-length Akt1; His
assay-details: Akt1 kinase assay (TR-FRET)
assay-setup: 10 μM ATP, 1 μM peptide substrate, 60 min at 22° C.; read-out: IC50 Akt1 Biological Assay 1.0)
property-label: IC50 (µM)

// worked examples, IC50 included
- compound-structure: "Cc1nc(-c2ccc(CN3CCC(c4n[nH]c(-c5ncccn5)n4)CC3)cc2)c(-c2ccccc2)c2nccn12"
  IC50 [µM]: 0.014
- compound-structure: "Cc1ccc(-c2nc(C3CCN(Cc4ccc(-c5nc(C)n6ccnc6c5-c5ccccc5)cc4)CC3)n[nH]2)nc1C"
  IC50 [µM]: 0.003
- compound-structure: "Cc1cc(C)nc(-c2nc(C3CCN(Cc4ccc(-c5ncn6ccnc6c5-c5ccccc5)cc4)CC3)n[nH]2)c1"
  IC50 [µM]: 0.007
- compound-structure: "c1ccc(-c2c(-c3ccc(CN4CCC(c5n[nH]c(-c6cnccn6)n5)CC4)cc3)ncn3ccnc23)cc1"
  IC50 [µM]: 0.029
- compound-structure: "FC(F)(F)c1ccnc(-c2nc(C3CCN(Cc4ccc(-c5ncn6ccnc6c5-c5ccccc5)cc4)CC3)n[nH]2)c1"
  IC50 [µM]: 0.022
- compound-structure: "Fc1ccc(-c2nc(C3CCN(Cc4ccc(-c5ncn6ccnc6c5-c5ccccc5)cc4)CC3)n[nH]2)nc1"
  IC50 [µM]: 0.019
- compound-structure: "Cc1nc(-c2ccc(CN3CCC(c4n[nH]c(-c5ccccn5)n4)CC3)cc2)c(-c2ccccc2)c2nccn12"
  IC50 [µM]: 0.004
- compound-structure: "Cc1ccc(-c2nc(C3CCN(Cc4ccc(-c5ncn6ccnc6c5-c5ccccc5)cc4)CC3)n[nH]2)nc1C"
  IC50 [µM]: 0.007
- compound-structure: "Cc1nc(-c2ccc(CN3CC(c4n[nH]c(-c5ccccn5)n4)C3)cc2)c(-c2ccccc2)c2nccn12"
  IC50 [µM]: 0.003
- compound-structure: "Cc1ccc(-c2nc(C3CCN(Cc4ccc(-c5ncn6ccnc6c5-c5ccccc5)cc4)CC3)n[nH]2)nc1"
  IC50 [µM]: 0.008

[I] Brc1ccc(-c2nc(C3CCN(Cc4ccc(-c5ncn6ccnc6c5-c5ccccc5)cc4)CC3)n[nH]2)nc1
[II] c1ccc(-c2c(-c3ccc(CN4CCC(c5n[nH]c(-c6ccccn6)n5)CC4)cc3)ncn3ccnc23)cc1
Query :: Which of these two has the smaller recorded IC50: I or II ? Reply briefly: the label of your chosen item.
Result :: II
(II: 0.008 µM, I: 0.018 µM)

---

tested-on: human recombinant kinase full-length Akt1 (Homo sapiens, UniProt P31749)
Construct: human recombinant kinase full-length Akt1; His
Sequence (P31749 whole entry): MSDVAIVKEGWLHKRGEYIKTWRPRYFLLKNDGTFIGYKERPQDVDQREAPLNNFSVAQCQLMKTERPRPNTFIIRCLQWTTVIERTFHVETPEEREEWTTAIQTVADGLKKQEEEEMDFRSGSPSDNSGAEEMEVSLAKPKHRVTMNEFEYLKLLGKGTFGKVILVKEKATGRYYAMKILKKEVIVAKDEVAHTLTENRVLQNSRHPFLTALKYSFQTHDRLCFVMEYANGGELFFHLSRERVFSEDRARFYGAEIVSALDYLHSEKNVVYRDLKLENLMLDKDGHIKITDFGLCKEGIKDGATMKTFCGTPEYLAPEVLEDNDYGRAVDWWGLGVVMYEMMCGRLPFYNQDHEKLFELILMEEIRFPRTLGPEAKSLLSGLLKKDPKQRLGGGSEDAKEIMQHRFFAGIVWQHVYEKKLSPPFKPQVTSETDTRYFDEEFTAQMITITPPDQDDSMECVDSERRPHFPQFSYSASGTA
assay-details: Akt1 kinase assay (TR-FRET)
assay-setup: 10 μM ATP, 1 μM peptide substrate, 60 min at 22° C.; read-out: IC50 Akt1 Biological Assay 1.0)
pIC50: −log10 of the molar value.
property-label: pIC50

- compound-structure: "Cc1nc(-c2ccc(CN3CCC(c4n[nH]c(-c5cnccn5)n4)CC3)cc2)c(-c2ccccc2)c2nccn12"
  pIC50: 7.92
- compound-structure: "Clc1cccc(-c2nc(C3CCN(Cc4ccc(-c5ncn6ccnc6c5-c5ccccc5)cc4)CC3)n[nH]2)n1"
  pIC50: 7.80
- compound-structure: "c1ccc(-c2c(-c3ccc(CN4CC(c5n[nH]c(-c6ccccn6)n5)C4)cc3)ncn3ccnc23)cc1"
  pIC50: 7.92
